// provenance: ChEMBL document CHEMBL1141685

- method: Metabolic stability in human liver microsomes assessed as compound remaining at 1 uM after 60 mins
- Format: ADME, Microsome
- experimental context: read-out: Stability
observation type: remaining at 1 h, 1 µM (%)

CS(=O)(=O)Nc1ccc2c(c1)S(=O)(=O)N=C(C1=C(O)C3CCCN3N(Cc3ccc(F)cc3)C1=O)N2 (centres undefined) | 87
CS(=O)(=O)Nc1ccc2c(c1)S(=O)(=O)N=C(c1c(O)c3cccn3n(Cc3ccc(F)cc3)c1=O)N2 | 86

P. CC(C)CCN1C(=O)C(C2=NS(=O)(=O)c3cc(NS(C)(=O)=O)ccc3N2)=C(O)C2CCCN21 (centres undefined)
Q. CS(=O)(=O)Nc1ccc2c(c1)S(=O)(=O)N=C(C1=C(O)C3CCCCN3N(Cc3ccc(F)cc3)C1=O)N2 (centres undefined)
Input line: Please indicate which has the smaller reported remaining at 1 h, 1 µM: P , or Q . Output the label that corresponds to your choice.
Output line: P
